- System: vaccinia virus WR
- assay: microbe, parasite or virus in culture
- Format: cell-based
What selectivity index was measured for each of the following?

Solved cases (2 shown):
(Q) Tell me the measured selectivity index of Cc1cc(/N=C/c2cc(Cl)cc(Cl)c2O)no1 , please.
(A) >2.1

(Q) Tell me the measured selectivity index of Cc1cc(OC(=O)c2ccco2)nc(SCc2c(Cl)cccc2Cl)n1 , please.
(A) >2

Lab note: next molecule to report on.
(Q) Tell me the measured selectivity index of Cc1ccc2c(Sc3ccc(Cl)cc3)c(C(=O)O)[nH]c2c1 , please.
(A) >1.5

* * *

What IC50 was measured for each of the following?
- measuredTarget: UniProt:P06856
- Type: biochemical
- studyConditions: read-out: DNA synth IC50
Numbers only, in µM.

Solved cases (3 shown):
(Q) Tell me the measured IC50 of Cc1c(/N=C/c2cc(Br)cc(Br)c2Br)cccc1C(=O)O , please.
(A) 26

(Q) Tell me the measured IC50 of CCNc1nc(SCc2ccc(Cl)cc2)nc2sc3c(c12)CCN(C)C3 , please.
(A) 129

(Q) Tell me the measured IC50 of Cc1csc2c(N3CCN(C(=O)NC(C)(C)C)CC3)ncnc12 , please.
(A) 12

Dear colleague, could you send me IC50 for each of the items below? Thanks.
1. O=C(Nc1ccccc1C(=O)O)OCC1c2ccccc2-c2ccccc21
2. Cc1cc(/N=C/c2cc(Cl)cc(Cl)c2O)no1

(A)
[26, 30]

Dear colleague, could you send me IC50 for each of the items below? Thanks.
1. Cc1ccc2c(Sc3ccc(Cl)cc3)c(C(=O)O)[nH]c2c1
2. N=C1S/C(=C/c2ccco2)C(=O)N1c1nccs1
3. CC(=O)n1c2ccccc2c2nc(C)sc21
4. CCS(=O)(=O)N1CCN=C1SCc1ccc(Cl)cc1Cl
5. COC(=O)c1cccc2c1-c1ccccc1/C2=N\O
6. CCOC(=O)c1c(NC(=O)/C=C/C(=O)O)sc(C)c1-c1ccccc1
7. Cc1cc(OC(=O)c2ccco2)nc(SCc2c(Cl)cccc2Cl)n1

(A)
[43, 32, 111, 188, 108, 374, 52]

* * *

What CC50 was measured for each of the following?
- Test system: BS-C-1 cells
- assay: WST-1 cytotoxicity assay
- studyConditions: read-out: Cytotoxicity 20 h CC50; 20 h, Table 4
Numbers only, in µM.

Solved cases (2 shown):
(Q) Tell me the measured CC50 of COC(=O)c1cccc2c1-c1ccccc1/C2=N\O , please.
(A) 127

(Q) Tell me the measured CC50 of CCOC(=O)c1c(NC(=O)/C=C/C(=O)O)sc(C)c1-c1ccccc1 , please.
(A) 159

Others:
(Q) Tell me the measured CC50 of Cc1csc2c(N3CCN(C(=O)NC(C)(C)C)CC3)ncnc12 , please.
(A) 157

* * *

What selectivity index was measured for each of the following?
- Tested on: vaccinia virus WR
- assay: microbe, parasite or virus in culture
- Type: cell-based

Solved cases (8 shown):
(Q) Tell me the measured selectivity index of Cc1c(/N=C/c2cc(Br)cc(Br)c2Br)cccc1C(=O)O , please.
(A) >2

(Q) Tell me the measured selectivity index of O=C1/C(=C/C2CCCO2)CC/C1=C\C1CCCO1 (stereo not shown) , please.
(A) >1

(Q) Tell me the measured selectivity index of N=C1/C(=C/c2coc3ccccc3c2=O)C(=O)N=C2SC=NN12 , please.
(A) >1

(Q) Tell me the measured selectivity index of CC(=O)n1c2ccccc2c2nc(C)sc21 , please.
(A) >1

(Q) Tell me the measured selectivity index of CCn1c2ccccc2c2ccc(/C=N/n3cnnc3)cc21 , please.
(A) >4.0

(Q) Tell me the measured selectivity index of COC(=O)c1cccc2c1-c1ccccc1/C2=N\O , please.
(A) 13.2

(Q) Tell me the measured selectivity index of N=C1S/C(=C/c2ccco2)C(=O)N1c1nccs1 , please.
(A) >1.2

(Q) Tell me the measured selectivity index of CCNc1nc(SCc2ccc(Cl)cc2)nc2sc3c(c12)CCN(C)C3 , please.
(A) 2.6

Dear colleague, could you send me selectivity index for each of the items below? Thanks.
1. Cc1csc2c(N3CCN(C(=O)NC(C)(C)C)CC3)ncnc12
2. O=C(Nc1ccccc1C(=O)O)OCC1c2ccccc2-c2ccccc21

(A)
3.1
>1.9

* * *

What pEC50 was measured for each of the following?
- Tested on: vaccinia virus WR
- assay: microbe, parasite or virus in culture
- Format: cell-based
- studyConditions: Orthopoxvirus vaccinia, BSC-1, 20 h, read-out: cell prot EC50
One number for each entry, as −log10 of the molar value.

Solved cases (2 shown):
(Q) Tell me the measured pEC50 of CC(=O)n1c2ccccc2c2nc(C)sc21 , please.
(A) 3.63

(Q) Tell me the measured pEC50 of Cc1ccc2c(Sc3ccc(Cl)cc3)c(C(=O)O)[nH]c2c1 , please.
(A) 3.89

Dear colleague, could you send me pEC50 for each of the items below? Thanks.
1. Cc1cc(/N=C/c2cc(Cl)cc(Cl)c2O)no1
2. CCNc1nc(SCc2ccc(Cl)cc2)nc2sc3c(c12)CCN(C)C3
3. O=C(Nc1ccccc1C(=O)O)OCC1c2ccccc2-c2ccccc21
4. O=C(O)Cn1c2ccc(Cl)cc2c2nc3ccccc3nc21
5. Nc1ccn(C[C@@H](CO)OCP(=O)(O)O)c(=O)n1 [Cidofovir, reference compound]
6. CCOC(=O)c1c(NC(=O)/C=C/C(=O)O)sc(C)c1-c1ccccc1

(A)
[4.02, 4.38, 3.98, 4.00, 3.88, 4.52]

Dear colleague, could you send me pEC50 for each of the items below? Thanks.
1. CCn1c2ccccc2c2ccc(/C=N/n3cnnc3)cc21
2. COC(=O)c1cccc2c1-c1ccccc1/C2=N\O

(A)
4.30
5.02

* * *

What CC50 was measured for each of the following?
- System: BS-C-1 cells
- assay: WST-1 cytotoxicity assay
- studyConditions: read-out: Cytotoxicity 120 h CC50; 120 h, Table 4
One number for each entry, in µM.

Solved cases (5 shown):
(Q) CC50 of Cc1ccc2c(Sc3ccc(Cl)cc3)c(C(=O)O)[nH]c2c1 on BS-C-1 cells?
(A) 120

(Q) CC50 of CCNc1nc(SCc2ccc(Cl)cc2)nc2sc3c(c12)CCN(C)C3 on BS-C-1 cells?
(A) 5

(Q) CC50 of CC(=O)n1c2ccccc2c2nc(C)sc21 on BS-C-1 cells?
(A) 75

(Q) CC50 of Nc1ccn(C[C@@H](CO)OCP(=O)(O)O)c(=O)n1 [Cidofovir, reference compound] on BS-C-1 cells?
(A) 300

(Q) CC50 of O=C(O)Cn1c2ccc(Cl)cc2c2nc3ccccc3nc21 on BS-C-1 cells?
(A) 30

Dear colleague, could you send me CC50 for each of the items below? Thanks.
1. O=C(Nc1ccccc1C(=O)O)OCC1c2ccccc2-c2ccccc21
2. Cc1cc(/N=C/c2cc(Cl)cc(Cl)c2O)no1

(A)
[20, 20]

Dear colleague, could you send me CC50 for each of the items below? Thanks.
1. CCn1c2ccccc2c2ccc(/C=N/n3cnnc3)cc21
2. Cc1csc2c(N3CCN(C(=O)NC(C)(C)C)CC3)ncnc12
3. COC(=O)c1cccc2c1-c1ccccc1/C2=N\O
4. N=C1/C(=C/c2coc3ccccc3c2=O)C(=O)N=C2SC=NN12

(A)
1. 3
2. 40
3. 20
4. 50

* * *

- Test system: BS-C-1 cells
- assay: WST-1 cytotoxicity assay
- studyConditions: read-out: Cytotoxicity 72 h CC50; 72 h, Table 4
measureName: CC50 (µM)
Answers are plain numbers, in µM.

(Q) Tell me the measured CC50 of Cc1ccc2c(Sc3ccc(Cl)cc3)c(C(=O)O)[nH]c2c1 [Compound 11] , please.
(A) 174

(Q) Tell me the measured CC50 of CCn1c2ccccc2c2ccc(/C=N/n3cnnc3)cc21 [Compound 3] , please.
(A) 36

Others:
(Q) Tell me the measured CC50 of O=C(O)Cn1c2ccc(Cl)cc2c2nc3ccccc3nc21 [Compound 13] , please.
(A) 13

* * *

- measuredTarget: vaccinia virus DNA synthesis (viral DNA polymerase and its associated factors) (Vaccinia virus)
- Format: biochemical
- studyConditions: read-out: DNA Synthesis IC50
What pIC50 was measured for each of the following?
Give bare numbers, as −log10 of the molar value.

(Q) Tell me the measured pIC50 of COc1ccc2c(c1)C=C/C(=C\c1sc3ccccc3[n+]1C)N2C , please.
(A) 5.40

(Q) Tell me the measured pIC50 of CCOC(=O)c1cnc2c(C)c(C)ccc2c1NCCCN(C)C , please.
(A) 5.30

(Q) Tell me the measured pIC50 of CC(C)Nc1ccc(Nc2ccnc3cc4ccccc4cc23)cc1 , please.
(A) 5.39

(Q) Tell me the measured pIC50 of CC1=CC(C)(C)N=C(Nc2nc(C)c3cc(C)cc(C)c3n2)N1 , please.
(A) 5.28

Dear colleague, could you send me pIC50 for each of the items below? Thanks.
1. Cc1cc(NCCN2CCCCC2)c2ccc3ccccc3c2n1
2. O=C(NCCCN1CCCC1)c1cc2c(Cl)nc3ccccc3c2s1
3. CN(C)CCc1cc2c(c3c1ccc1ccccc13)OCO2
4. CC[n+]1cc(/C=C2\SC=CN2C)c(C)c2cc(OC)c3ccccc3c21

(A)
1. 5.22
2. 5.00
3. 5.27
4. 5.46

Measured values drawn from patent US9211296B2 for this set.
